Listed here: items and their measured FACS positive/negative BMDM.
measurement-target: T1, human TREM2 (hTREM2) on cells (human, UniProt Q9NZC2 19-230)
T1 construct: also called hTREM2 expressing HEK293
T1 sequence: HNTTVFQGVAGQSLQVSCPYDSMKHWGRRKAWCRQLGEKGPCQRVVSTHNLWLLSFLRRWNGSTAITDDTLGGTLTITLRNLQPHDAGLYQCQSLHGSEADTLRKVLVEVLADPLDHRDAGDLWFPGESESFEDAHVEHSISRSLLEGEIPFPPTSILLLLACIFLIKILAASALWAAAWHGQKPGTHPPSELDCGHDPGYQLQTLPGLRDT
assay-protocol: flow cytometry on BMDM
Returns: string containing the number followed by the unit.

Worked cases, FACS positive/negative BMDM given:
{"columns": ["binder", "readout-label", "result"],
 "data": [
  ["61B11C9 (antibody, V domains shown, Biotin conjugated in sup ELISA, cell-based ELISA and flow cytometry) VH: QLQESGPEQVKPGASVKMSCRTSGYTFTAYNMHWVKQRLGKSLEWIGYIRPTNGDTRYNRRFRDKATLTVDKSSSTTYMELRSLTSEDSAVYYCTRSTTVASFDYWGQGTTLTVSS VL: DIVMTQTTSSLTVSVGQKITLNCKSSQSLLYTNNQKNFLAWYQQKPGQSPKLLIYWASTRDSGVPDRFTGSGSGTDFTLTITSVMAEDLAVYFCQQYYDFPPTFGGGTKLEIK", "FACS positive/negative BMDM", "1.47 ratio"],
  ["60H4A3 (antibody, V domains shown, Biotin conjugated in sup ELISA, cell-based ELISA and flow cytometry) VH: EVQLQESGPELVKPGASVKMSCKASGYTFTDYNMHWVKQSHGKSLEWIGYIYPNNGGTGYNQKFKGKATLTVNKSSSTAYMELRSLTSEDSAVYYCARSGRGFAYWGQGTLVTVSA VL: DIVMTQSPASLSVTPGDRVSLSCRASQSISDYLHWYQQKSHESPRLLIKYASQSISGIPSRFSGSGSGSDFTLSINSVEPEDVGVYYCQNGHSFPYTFGGGTKLEIK", "FACS positive/negative BMDM", "1.78 ratio"],
  ["80E3C7 (antibody, V domains shown, Biotin conjugated in sup ELISA, cell-based ELISA and flow cytometry; also called anti-TREM2 antibody (E3C7); TREM2 Ab E3C7) VH: QVQLQQPGAEPLKPGASVKMSCEASGYTFTNFWITWMKLRPGQGLEWIGDIYPGTGNTNYNEKFKSRATLTVDTSSTTAYMQLSSLTSEDSAVYYCAREAYYTNPGFAYWGHGTLVTVSA VL: DVLMTQSPLSLPVNLGDQASISCKSSQNIVHSNGNTYLEWYLQRPGQSPKLLIYKVSNRFSGVPDRFSGSGSGTDFTLKISRVEAEDLGVYYCFQGSHVPYTFGGGTKLEIK", "FACS positive/negative BMDM", "1.87 ratio"],
  ["54H2C1 (antibody, V domains shown, Biotin conjugated in sup ELISA, cell-based ELISA and flow cytometry) VH: QVQLQQPGAEPLTPGASVKMSCEASGYTFTNFWITWVKLRPGQGLEWIGDIYPGSGNTNYNEKFKSRATLTVDTSSTTAYMQLSSLTSEDSAVYYCAREAYYTNPGFAYWGHGTLVTVSA VL: DVLMTQSPLSLPVNLGDQASISCKSSQNIVHSNGNTYLEWYLQRPGQSPKLLIYKVSNRFSGVPDRFSGSGSGTDFTLKISRVEAEDLGLYYCFQGSHVPYTFGGGTKLEIK", "FACS positive/negative BMDM", "2.72 ratio"]
]}

Prompt line: What value of FACS positive/negative BMDM has been recorded for this entry: 60H4G2 (antibody, V domains shown, Biotin conjugated in sup ELISA, cell-based ELISA and flow cytometry) VH: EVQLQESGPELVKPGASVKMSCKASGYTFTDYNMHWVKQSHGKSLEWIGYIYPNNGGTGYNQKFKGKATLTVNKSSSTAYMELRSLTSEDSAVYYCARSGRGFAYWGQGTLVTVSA VL: DIVMTQSTSSLTVTAGEKVTMSCKSSQSLLNSGNQKNYLTWYQQKPGQPPKLLIYWASSRESGVPDRFTGRGSGTDFTLTISSVQAEDLAVYYCQNDYSYPFTFGSGTKLEIK
Response line: 1.16 ratio

Prompt line: And 83E10B12 (antibody, V domains shown, Biotin conjugated in sup ELISA, cell-based ELISA and flow cytometry) VH: QVQLQESGPELVKPGASVKISCKASGYIFSYSWMNWVKQRPGKGLEWIGRIYPGDGDADYNGKFKGKATLTADKSSNTAYMQLTSLTSEDSAVYFCARLHIYDGYYVSVYWGQGTLVTVSA VL: DIQMTQTTSCLSASLGDRVTISCRASQDINNYLSWYQQKPDGTVKLLIYYTSKLHSGVPSRFSGSGSGTDYSLTIGNLEQEDVATYFCQQGDTLPWTFGGGTRLEIK ?
Response line: 2.58 ratio
